test system: Drosophila bursicon receptor LGR2 (rickets); test: inhibitors of bursicon-induced LGR2 CRE-luciferase signal, primary screen, cell-based, HEK293, CRE-luciferase reporter, bursicon stimulation (AID 720647); details: bursicon-stimulated, 4 h, at 9.99 µM;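 note: agonist challenge used bursicon conditioned medium at about half maximal strength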
Hit rate of the full screen: of about 380,000 compounds, about 1,300 (0.34%) were called active.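 Rule for the calls: active = drop in luminescence signal, shown as inhibition above about 50% in the replicate tests (limit read from the data, passing the limit was not always enough); inconclusive = probably only some replicates passing the limit; inactive = the rest.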 For the sample, actives were picked, then their nearest neighbours and some compounds at random.
Possible outcomes: true (1) for active, false (0) for inactive

MOLECULE: C=CCN1CCN(C(=O)CCCc2ccccc2)CC1
ASSAYED SYSTEM: Drosophila bursicon receptor LGR2 (rickets)
ANSWER LABEL: true (1)
//
MOLECULE: CCOC(=O)C(=O)C1C(=O)Nc2ccccc21 (stereo unspecified)
ASSAYED SYSTEM: Drosophila bursicon receptor LGR2 (rickets)
ANSWER LABEL: false (0)
//
MOLECULE: Cc1cccc(-n2ncc(Cl)c(Cl)c2=O)c1
ASSAYED SYSTEM: Drosophila bursicon receptor LGR2 (rickets)
ANSWER LABEL: true (1)
//
MOLECULE: O=C(CSc1ccccc1F)NC1CCS(=O)(=O)C1 (stereo unspecified)
ASSAYED SYSTEM: Drosophila bursicon receptor LGR2 (rickets)
ANSWER LABEL: false (0)
//
MOLECULE: O=C(CCCc1ccccc1)NCc1ccccc1
ASSAYED SYSTEM: Drosophila bursicon receptor LGR2 (rickets)
ANSWER LABEL: false (0)
//
MOLECULE: CCC(=O)N(C)C[C@@H]1Oc2cc(-c3ccc(C#N)cc3)ccc2S(=O)(=O)N([C@@H](C)CO)C[C@@H]1C
ASSAYED SYSTEM: Drosophila bursicon receptor LGR2 (rickets)
ANSWER LABEL: false (0)
//
MOLECULE: N#C[C@H]1[C@H](c2ccc(C#Cc3ccc(F)cc3)cc2)[C@@H](CO)N1C(=O)C1CCCC1
ASSAYED SYSTEM: Drosophila bursicon receptor LGR2 (rickets)
ANSWER LABEL: false (0)
//
MOLECULE: CS(=O)(=O)N1[C@H](C#N)[C@H](c2ccc(C#CC3CCCC3)cc2)[C@H]1CO
ASSAYED SYSTEM: Drosophila bursicon receptor LGR2 (rickets)
ANSWER LABEL: false (0)
//
MOLECULE: COc1cccc2cc(C(N)=O)/c(=N\NC(=O)c3ccccc3)oc12
ASSAYED SYSTEM: Drosophila bursicon receptor LGR2 (rickets)
ANSWER LABEL: true (1)
//
MOLECULE: C(=N\Nc1ccc2ccccc2n1)/c1ccc2c(c1)OCO2
ASSAYED SYSTEM: Drosophila bursicon receptor LGR2 (rickets)
ANSWER LABEL: true (1)
//
MOLECULE: N#C[C@@H]1[C@H](c2ccc(C#Cc3cccc(F)c3)cc2)[C@@H](CO)N1C(=O)C1CCCC1
ASSAYED SYSTEM: Drosophila bursicon receptor LGR2 (rickets)
ANSWER LABEL: true (1)
//
MOLECULE: CCOC(=O)/C=C/c1ccccc1O
ASSAYED SYSTEM: Drosophila bursicon receptor LGR2 (rickets)
ANSWER LABEL: false (0)
//
MOLECULE: COCC(=O)Nc1ccc2c(c1)[C@H]1C[C@@H](CC(=O)NCc3ccccc3F)O[C@H](CO)[C@H]1O2
ASSAYED SYSTEM: Drosophila bursicon receptor LGR2 (rickets)
ANSWER LABEL: false (0)
//
MOLECULE: COc1cccc2cc(/C(C)=N/NC(=O)c3ccco3)oc12
ASSAYED SYSTEM: Drosophila bursicon receptor LGR2 (rickets)
ANSWER LABEL: false (0)
//
MOLECULE: Cc1cc(=O)cc(C)n1-c1ccc(Cl)c(Cl)c1
ASSAYED SYSTEM: Drosophila bursicon receptor LGR2 (rickets)
ANSWER LABEL: false (0)
//
MOLECULE: O=C(C[C@H]1C=C[C@H](NC(=O)CC2CC2)[C@@H](CO)O1)NCc1ccccc1
ASSAYED SYSTEM: Drosophila bursicon receptor LGR2 (rickets)
ANSWER LABEL: false (0)
//
MOLECULE: N#C[C@@H]1[C@@H](c2ccc(C#Cc3cccc(F)c3)cc2)[C@H](CO)N1C(=O)C1CCOCC1
ASSAYED SYSTEM: Drosophila bursicon receptor LGR2 (rickets)
ANSWER LABEL: false (0)
//
MOLECULE: C[C@@H]1CCCCO[C@@H](CN(C)C)[C@@H](C)CN([C@H](C)CO)C(=O)c2cc(N(C)C)ccc2O1
ASSAYED SYSTEM: Drosophila bursicon receptor LGR2 (rickets)
ANSWER LABEL: false (0)
//
MOLECULE: COc1ccccc1C#Cc1ccc([C@H]2[C@@H](C#N)N(C(=O)C3CCCCC3)[C@@H]2CO)cc1
ASSAYED SYSTEM: Drosophila bursicon receptor LGR2 (rickets)
ANSWER LABEL: false (0)
//
MOLECULE: O=S1(=O)CCC(NC(=S)SCc2ccccc2Br)C1 (stereo unspecified)
ASSAYED SYSTEM: Drosophila bursicon receptor LGR2 (rickets)
ANSWER LABEL: true (1)
//
MOLECULE: COc1cccc2cc(C(=O)NCc3ccc(C)cc3)c(=N)oc12
ASSAYED SYSTEM: Drosophila bursicon receptor LGR2 (rickets)
ANSWER LABEL: false (0)
